- Assay Text: biological half-life from the inflamed tissue by gas chromatography
- Format: in vivo
- Measurement Setup: rat, read-out: biological half-life (HL) from the inflamed tissue (converted)
Property Measured: half-life

Recorded result, "O=C(OCCOCCO)c1ccccc1Nc1cccc(C(F)(F)F)c1" , half-life: ~510 min

###

- Assay Text: half-life for elimination from the tissue (site of administration)
- Format: in vivo
- Measurement Setup: tissue at administration site, im; rat, i.m. administration in oily solution; read-out: HL for elimination from the tissue (site of administration) (converted)
- Experimental: It was possible to determine the biological half-life (HL) of the compound 11 in rats from the inflamed tissue by means of gas chromatography [H.-D. Dell, J. Fielder, H. Jacobi and J. Kolle, Arzneim.-Forsch./Drug.Res 31, 17-21 (1981)]. The HL from the tissue is about 8.5 hours. In contrast, an HL of 1.29 days is determined for elimination from the tissue (site of administration) following intramuscular administration of 11 in oily solution.
Property Measured: half-life (h)
Numeric answer only, unit h assumed.

Recorded result, "O=C(OCCOCCO)c1ccccc1Nc1cccc(C(F)(F)F)c1" , half-life: 31
